Target: HLA-DR DRB1*1302 (DR13) (Homo sapiens, UniProt P01903+P01911, A100E/A169T/K41T/L162R/M171V/P40S/Q125H/Q178H/Q39Y/Q99D/R42S/S66N/T262R/V115G/W38E/Y61H)
Sequence (P01903 26-254 limits assumed, other chains not shown): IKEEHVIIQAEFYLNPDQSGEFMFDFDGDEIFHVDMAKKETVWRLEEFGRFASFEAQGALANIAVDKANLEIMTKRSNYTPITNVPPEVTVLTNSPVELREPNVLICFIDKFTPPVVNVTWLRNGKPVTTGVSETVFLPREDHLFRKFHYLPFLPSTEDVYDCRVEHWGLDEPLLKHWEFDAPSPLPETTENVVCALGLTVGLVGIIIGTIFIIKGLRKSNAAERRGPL
Experiment: biochemical
Type: binding
Settings: DRBI *1302
Below, each of the compounds is paired with its reported pIC50 value.
Bear in mind: pIC50 is minus log10 of a mol/L concentration; give just that figure.

// below: answered compounds
{"columns": ["SMILES", "NUMERIC_READOUT"],
 "data": [
  ["CC[C@H](C)[C@H](N)C(=O)N[C@@H](CCCCN)C(=O)N[C@@H](CCCCN)C(=O)N[C@@H](Cc1ccccc1)C(=O)N[C@@H](CC(C)C)C(=O)N[C@@H](Cc1ccc(O)cc1)C(=O)N[C@@H](CC(N)=O)C(=O)N[C@@H](Cc1ccccc1)C(=O)N[C@H](C(=O)N[C@@H](CCC(N)=O)C(=O)N[C@H](C(=O)N1CCC[C@H]1C(=O)N[C@@H](Cc1c[nH]cn1)C(=O)N[C@@H](CC(C)C)C(=O)N[C@@H](C)C(=O)O)[C@@H](C)CC)[C@@H](C)O", 7.57],
  ["CSCC[C@H](NC(=O)[C@@H]1CCCN1C(=O)[C@H](CC(=O)O)NC(=O)[C@@H](N)Cc1ccc(O)cc1)C(=O)N[C@@H](Cc1ccccc1)C(=O)N[C@@H](CCCCN)C(=O)N[C@@H](Cc1ccc(O)cc1)C(=O)N[C@@H](Cc1c[nH]cn1)C(=O)N[C@@H](CC(C)C)C(=O)N[C@H](C(=O)N[C@H](C(=O)N[C@@H](C)C(=O)N[C@@H](CCC(N)=O)C(=O)N[C@H](C(=O)N[C@@H](CCCNC(=N)N)C(=O)O)C(C)C)C(C)C)[C@@H](C)O", 5.99]
]}

Now for the compound whose pIC50 we want.
Fill blank: measured pIC50 of the compound `CC[C@H](C)[C@H](NC(=O)[C@H](CCC(=O)O)NC(=O)[C@H](CC(C)C)NC(=O)[C@H](C)NC(=O)[C@H](CO)NC(=O)[C@H](CO)NC(=O)[C@H](CC(C)C)NC(=O)[C@H](CCC(=O)O)NC(=O)[C@H](Cc1c[nH]cn1)NC(=O)[C@H](CC(C)C)NC(=O)[C@H](CCCCN)NC(=O)[C@H](CCCNC(=N)N)NC(=O)[C@@H]1CCCN1)C(=O)N1CCC[C@H]1C(=O)N[C@@H](Cc1ccc(O)cc1)C(=O)O` is ____. 7.29
